Data provenance is PubChem BioAssay AID1918998.

tested on: 521955-158-R2-J5-PDC complex spheroid growth; assay: Anticancer human tumor 521955-158-R2-J5-PDC patient-derived pancreatic carcinoma cell line growth inhibition [AhR]; details: second compound 10 µM; first compound 0.1 µM; stronger effect = lower value
OBSERVABLE: viability, T/C

INSERT INTO measurements (compound, tested_system, result) VALUES
  ('CC1COCCN1c1cc(C2(S(C)(=N)=O)CC2)nc(-c2ccnc3[nH]ccc23)n1 (stereo not drawn) + CC(CO)NC(=O)c1cc(-c2ccc(Cl)cc2)nn(-c2cnn(C)c2)c1=O', '521955-158-R2-J5-PDC complex spheroid growth', '123%'),
  ('CC1COCCN1c1cc(-c2ccnn2C)c2ccnc(-c3ccn[nH]3)c2n1 (stereo not drawn) + Cc1cncc(-c2nc(NCCc3c[nH]c4ccccc34)c3ncn(C(C)C)c3n2)c1', '521955-158-R2-J5-PDC complex spheroid growth', '45.2%'),
  ('Cn1ncnc1C1c2n[nH]c(=O)c3cc(F)cc(c23)NC1c1ccc(F)cc1 (stereo not drawn) + CC(CO)NC(=O)c1cc(-c2ccc(Cl)cc2)nn(-c2cnn(C)c2)c1=O', '521955-158-R2-J5-PDC complex spheroid growth', '77.8%');

====

tested on: 521955-158-R2-J5-PDC complex spheroid growth; assay: Anticancer human tumor 521955-158-R2-J5-PDC cell line growth inhibition [AhR]; conditions: second compound 3.16 µM; first compound 10 µM; active means viability on the fitted dose curve at most 10% of control; inactive means the rest
Labels: Y = active, N = inactive

INSERT INTO assay_data (compound, tested_system, label_class) VALUES
  ('COc1cccc2c1C(=O)c1c(O)c3c(c(O)c1C2=O)CC(O)(C(=O)CO)CC3OC1CC(N)C(O)C(C)O1 (stereo not given) + Cc1cncc(-c2nc(NCCc3c[nH]c4ccccc34)c3ncn(C(C)C)c3n2)c1', '521955-158-R2-J5-PDC complex spheroid growth', 'Y'),
  ('Nc1ccn(C2OC(CO)C(O)C2(F)F)c(=O)n1 (stereo not given) + CC(CO)NC(=O)c1cc(-c2ccc(Cl)cc2)nn(-c2cnn(C)c2)c1=O', '521955-158-R2-J5-PDC complex spheroid growth', 'N'),
  ('O=C(C=Cc1cccc(S(=O)(=O)Nc2ccccc2)c1)NO + CC(CO)NC(=O)c1cc(-c2ccc(Cl)cc2)nn(-c2cnn(C)c2)c1=O', '521955-158-R2-J5-PDC complex spheroid growth', 'N'),
  ('O=C(c1cc(Cc2n[nH]c(=O)c3ccccc23)ccc1F)N1CCN(C(=O)C2CC2)CC1 + CC(CO)NC(=O)c1cc(-c2ccc(Cl)cc2)nn(-c2cnn(C)c2)c1=O', '521955-158-R2-J5-PDC complex spheroid growth', 'N'),
  ('COc1cccc2c1C(=O)c1c(O)c3c(c(O)c1C2=O)CC(O)(C(=O)CO)CC3OC1CC(N)C(O)C(C)O1 (stereo not given) + Cc1ccccc1N=Nc1ccc(NC(=O)c2ccnn2C)c(C)c1', '521955-158-R2-J5-PDC complex spheroid growth', 'Y');

====

test system: 521955-158-R2-J5-PDC complex spheroid growth; test: Anticancer human tumor 521955-158-R2-J5-PDC cell line growth inhibition [AhR]; settings: second compound 0.316 µM; first compound 0.0316 µM; stronger effect = lower value;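 on viability, T/C: spheroids mix tumor cells with HUVEC endothelium and human MSC stroma; luminescence taken as viability surrogate after a week of drug exposure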
Below: a set of entries, each annotated with reported viability, T/C.
OBSERVABLE: viability, T/C (%)

INSERT INTO measurements (compound, tested_system, readout_unit, recorded_number) VALUES
  ('CC[C@@]1(O)C(=O)OCc2c1cc1n(c2=O)Cc2cc3c(CN(C)C)c(O)ccc3nc2-1 + CC(CO)NC(=O)c1cc(-c2ccc(Cl)cc2)nn(-c2cnn(C)c2)c1=O', '521955-158-R2-J5-PDC complex spheroid growth', '%', 57.4),
  ('O=C(C=Cc1cccc(S(=O)(=O)Nc2ccccc2)c1)NO + Cc1cncc(-c2nc(NCCc3c[nH]c4ccccc34)c3ncn(C(C)C)c3n2)c1', '521955-158-R2-J5-PDC complex spheroid growth', '%', 131),
  ('COc1cc(Nc2ncc3c(n2)-c2ccc(Cl)cc2C(c2c(F)cccc2OC)=NC3)ccc1C(=O)O + Cc1cncc(-c2nc(NCCc3c[nH]c4ccccc34)c3ncn(C(C)C)c3n2)c1', '521955-158-R2-J5-PDC complex spheroid growth', '%', 99.7),
  ('Nc1ccccc1NC(=O)c1ccc(CNC(=O)OCc2cccnc2)cc1 + Cc1ccccc1N=Nc1ccc(NC(=O)c2ccnn2C)c(C)c1', '521955-158-R2-J5-PDC complex spheroid growth', '%', 95.2),
  ('COc1ccc([C@@H](O)c2cc(-c3ncnc4cc(N5CCOCC5)ccc34)c(F)cc2Cl)nn1 + Cc1ccccc1N=Nc1ccc(NC(=O)c2ccnn2C)c(C)c1', '521955-158-R2-J5-PDC complex spheroid growth', '%', 98.8),
  ('Nc1ccn(C2OC(CO)C(O)C2(F)F)c(=O)n1 (centres undefined) + CC(CO)NC(=O)c1cc(-c2ccc(Cl)cc2)nn(-c2cnn(C)c2)c1=O', '521955-158-R2-J5-PDC complex spheroid growth', '%', 56),
  ('CC1(C)CCC(CN2CCN(c3ccc(C(=O)NS(=O)(=O)c4ccc(NCC5CCOCC5)c([N+](=O)[O-])c4)c(Oc4cnc5[nH]ccc5c4)c3)CC2)=C(c2ccc(Cl)cc2)C1 + Cc1cncc(-c2nc(NCCc3c[nH]c4ccccc34)c3ncn(C(C)C)c3n2)c1', '521955-158-R2-J5-PDC complex spheroid growth', '%', 104),
  ('COc1cc(C2c3cc4c(cc3C(OC3OC5COC(C)OC5C(O)C3O)C3COC(=O)C23)OCO4)cc(OC)c1O (centres undefined) + Cc1cncc(-c2nc(NCCc3c[nH]c4ccccc34)c3ncn(C(C)C)c3n2)c1', '521955-158-R2-J5-PDC complex spheroid growth', '%', 107),
  ('CC1COCCN1c1cc(C2(S(C)(=N)=O)CC2)nc(-c2ccnc3[nH]ccc23)n1 (centres undefined) + CC(CO)NC(=O)c1cc(-c2ccc(Cl)cc2)nn(-c2cnn(C)c2)c1=O', '521955-158-R2-J5-PDC complex spheroid growth', '%', 110);

====

Measured pIC50 of individual entries
system: 521955-158-R2-J5-PDC complex spheroid growth; test: Anticancer human tumor 521955-158-R2-J5-PDC cell line growth inhibition [AhR]; conditions: curve of first compound; second compound 0.1 µM
pIC50: −log10 of the molar value.
OBSERVABLE: pIC50

INSERT INTO results (molecule, tested_system, relation_symbol, recorded_number) VALUES
  ('Cn1ncnc1C1c2n[nH]c(=O)c3cc(F)cc(c23)NC1c1ccc(F)cc1 (stereo not given) + Cc1cncc(-c2nc(NCCc3c[nH]c4ccccc34)c3ncn(C(C)C)c3n2)c1', '521955-158-R2-J5-PDC complex spheroid growth', '<', 7.00),
  ('Cn1ncnc1C1c2n[nH]c(=O)c3cc(F)cc(c23)NC1c1ccc(F)cc1 (stereo not given) + Cc1ccccc1N=Nc1ccc(NC(=O)c2ccnn2C)c(C)c1', '521955-158-R2-J5-PDC complex spheroid growth', '<', 7.00),
  ('Nc1ncn(C2CC(O)C(CO)S2)c(=O)n1 (stereo not given) + Cc1cncc(-c2nc(NCCc3c[nH]c4ccccc34)c3ncn(C(C)C)c3n2)c1', '521955-158-R2-J5-PDC complex spheroid growth', '<', 6.52),
  ('COc1ccc([C@@H](O)c2cc(-c3ncnc4cc(N5CCOCC5)ccc34)c(F)cc2Cl)nn1 + CC(CO)NC(=O)c1cc(-c2ccc(Cl)cc2)nn(-c2cnn(C)c2)c1=O', '521955-158-R2-J5-PDC complex spheroid growth', '<', 5.00),
  ('CC1(C)CCC(CN2CCN(c3ccc(C(=O)NS(=O)(=O)c4ccc(NCC5CCOCC5)c([N+](=O)[O-])c4)c(Oc4cnc5[nH]ccc5c4)c3)CC2)=C(c2ccc(Cl)cc2)C1 + Cc1ccccc1N=Nc1ccc(NC(=O)c2ccnn2C)c(C)c1', '521955-158-R2-J5-PDC complex spheroid growth', '<', 5.00),
  ('CC1COCCN1c1cc(C2(S(C)(=N)=O)CC2)nc(-c2ccnc3[nH]ccc23)n1 (stereo not given) + Cc1cncc(-c2nc(NCCc3c[nH]c4ccccc34)c3ncn(C(C)C)c3n2)c1', '521955-158-R2-J5-PDC complex spheroid growth', '=', 5.61),
  ('CC1COCCN1c1cc(-c2ccnn2C)c2ccnc(-c3ccn[nH]3)c2n1 (stereo not given) + Cc1ccccc1N=Nc1ccc(NC(=O)c2ccnn2C)c(C)c1', '521955-158-R2-J5-PDC complex spheroid growth', '=', 6.83),
  ('COc1ccc([C@@H](O)c2cc(-c3ncnc4cc(N5CCOCC5)ccc34)c(F)cc2Cl)nn1 + Cc1ccccc1N=Nc1ccc(NC(=O)c2ccnn2C)c(C)c1', '521955-158-R2-J5-PDC complex spheroid growth', '<', 5.00),
  ('Nc1ncn(C2CC(O)C(CO)O2)c(=O)n1 (stereo not given) + Cc1cncc(-c2nc(NCCc3c[nH]c4ccccc34)c3ncn(C(C)C)c3n2)c1', '521955-158-R2-J5-PDC complex spheroid growth', '=', 6.03),
  ('O=C(C=Cc1cccc(S(=O)(=O)Nc2ccccc2)c1)NO + CC(CO)NC(=O)c1cc(-c2ccc(Cl)cc2)nn(-c2cnn(C)c2)c1=O', '521955-158-R2-J5-PDC complex spheroid growth', '=', 5.34);
